Data credit: ChEMBL document CHEMBL4007467

- experimental.target: CYP2B6 (Homo sapiens, UniProt P20813)
- Sequence (P20813 whole entry): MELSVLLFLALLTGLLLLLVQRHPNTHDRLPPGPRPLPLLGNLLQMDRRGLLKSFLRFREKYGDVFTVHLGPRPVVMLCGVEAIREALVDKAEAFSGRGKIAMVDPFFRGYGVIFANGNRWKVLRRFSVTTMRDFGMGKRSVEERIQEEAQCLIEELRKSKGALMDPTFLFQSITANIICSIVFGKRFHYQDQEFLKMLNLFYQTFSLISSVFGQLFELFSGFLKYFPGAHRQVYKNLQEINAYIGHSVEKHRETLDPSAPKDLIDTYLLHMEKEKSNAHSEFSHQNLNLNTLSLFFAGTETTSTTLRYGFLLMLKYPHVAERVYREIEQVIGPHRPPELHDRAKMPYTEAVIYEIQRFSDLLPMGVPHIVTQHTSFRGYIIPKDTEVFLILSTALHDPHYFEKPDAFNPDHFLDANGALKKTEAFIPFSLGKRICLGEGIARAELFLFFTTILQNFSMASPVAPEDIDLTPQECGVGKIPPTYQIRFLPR
- method: Inhibition of CYP2B6 in human liver microsomes assessed as enzyme-mediated metabolite formation at 3 uM using bupropion as substrate incubated for 5 mins followed by NADPH addition measured after 30 mins by LC-MS/MS analysis relative to control
- Format: ADME
- Parameters: scale not given: the % may be the effect or the level left
- particulars: probe bupropion, read-out: Activity
test.readout: activity at 0.5 h, 3 µM (%)
Report only the number, with the unit % understood.

Return reported activity at 0.5 h, 3 µM for target or system CYP2B6 (Homo sapiens, UniProt P20813), item CCCCCCCC(=O)CCc1ccc(O)c(OC)c1 .
65.7
